Please provide measured normalized growth for the entries that follow.
PROCEDURE DETAILS: chemical genetic growth profiling, strain panel (AID 1159580);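 also: tested at 20 µM; growth read once vehicle control cultures reached saturation at 30 °C; 1 = growth at the plate median or of vehicle wells; lower values mean less growth of the strain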
MEASUREMENT PARAMETERS: S. cerevisiae deletion strains, growth OD, locus YNL224C, strain SQS1, active compounds read low
About 2,000 (36%) of roughly 5,500 compounds were called active. Roughly 18% stayed inconclusive and do not appear here. The list shows a part of the results.
One number for each entry.

Worked cases, answers included:
1) O=S1(=O)N(CCN2CC=C(c3c[nH]c4cc(F)ccc34)CC2)c2cccc3c2N1CCC3	1.02
2) NC(=O)c1ncn(C2OC(CO)C(O)C2O)n1 (stereo not drawn)	1.02

For `CCCN1CCC[C@@H]2Cc3[nH]ncc3C[C@H]21` the molecule record lists normalized growth as 1.01
